Data origin, for the record: patent US20220387396A1

assaySummary: in vivo
conditionNotes: male, CD-1, mouse, ip, 10 mg/kg
quantity: Cmax (ng/mL)

> print(dat)
                             compoundsmiles  quantity  readoutunits  valueobserved
1  CN(C)CCc1c[nH]c2ccc(C[C@H]3COC(=O)N3)cc12      Cmax         ng/mL           34.4

---

assaySummary: in vivo
conditionNotes: male, CD-1, mouse, ip, 3 mg/kg
quantity: Cmax (ng/mL)

> print(dat)
                             compoundsmiles  quantity  readoutunits  valueobserved
1  CN(C)CCc1c[nH]c2ccc(C[C@H]3COC(=O)N3)cc12      Cmax         ng/mL            5.4
